assay: qHTS assay to identify small molecule agonists of the estrogen receptor alpha (ER-alpha) signaling pathway in the presence of an antagonist - cell viability counter screen (AID 1259386); conditions: VM7Luc4E2 viability, CellTiter-Fluor fluorescence, 22 h; series mostly up to 92.4 µM;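 also: cells exposed to compounds for 22 h at 37 °C before the viability read; nearly all actives have a fitted effect of over 30% in size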
Inconclusive results are not listed. The source made the active and inactive calls. Calls follow the shape of the dose curve; as a rule, active = well fitted cell-killing curve with a large enough effect in the repeat runs; inconclusive = weak or mixed curves, or effect the other way; inactive = no such curve, though single readings can be large or run the other way.
Classes used: active, inactive

- Molecule: "OCC(F)(F)F"
  Assigned Class: "inactive"
- Molecule: "c1cnccn1"
  Assigned Class: "inactive"
- Molecule: "CC(=O)[C@H]1CC[C@H]2[C@@H]3CCC4=CC(=O)CC[C@]4(C)[C@H]3CC[C@]12C"
  Assigned Class: "inactive"
- Molecule: "O=C(/C=C/c1ccccc1)OC/C=C/c1ccccc1"
  Assigned Class: "inactive"
- Molecule: "CCCCCC(C)OC(=O)COc1ccc(Cl)c2cccnc12 (centres undefined)"
  Assigned Class: "inactive"
- Molecule: "CC1(C)[C@@H](O)CC[C@]2(C)[C@H]3C(=O)C=C4[C@@H]5C[C@@](C)(C(=O)O)CC[C@]5(C)CC[C@@]4(C)[C@]3(C)CC[C@@H]12"
  Assigned Class: "inactive"
- Molecule: "CCN(CCN)c1cccc(C)c1"
  Assigned Class: "inactive"
- Molecule: "C#CC1(O)CC[C@H]2[C@@H]3CCC4=CCCC[C@@H]4[C@H]3CC[C@@]21C (some centres undefined)"
  Assigned Class: "inactive"
- Molecule: "C=Cc1cccc(C)c1"
  Assigned Class: "inactive"
- Molecule: "NC(=S)NC(N)=S"
  Assigned Class: "inactive"
- Molecule: "O=C1CCc2ccc(OCCCCN3CCN(c4cccc(Cl)c4Cl)CC3)cc2N1"
  Assigned Class: "active"
- Molecule: "CC(N=C(NC#N)Nc1ccncc1)C(C)(C)C (centres undefined)"
  Assigned Class: "inactive"
- Molecule: "Nc1nc2c(ncn2COCCO)c(=O)[nH]1"
  Assigned Class: "inactive"
- Molecule: "COC(=O)c1ccccc1C"
  Assigned Class: "inactive"
